- target-or-system: human glucagon receptor (human, UniProt P47871 26-477)
- method-description: cell-based or functional assay
endpoint-label: GLUR EC50 (cAMP formation in HEK293 cells expressing human Glucagon-R) (nmol)

- binder: "H-HSQGTFTSDYSKYLDSRRAKDFIEWLLSA-NH2 [L006-0081]"
  assay-result: 0.23
- binder: "H-HSQGTFTSDYSKYLDERAAKDFIEWLLSA-NH2 [L006-0108]"
  assay-result: 0.81
- binder: "H-HSQGTFTSDYSKYLDERRAKDFIEWLLAA-NH2 [L006-0136]"
  assay-result: 0.33

(I) H-HSQGTFTSDYSKYLDDRRARDFIDWLLSA-NH2 [L006-0093]
(II) H-HSQGTFTSDYSKYLDERRAKDFIRWLLSA-NH2 [L006-0128]
Pick one: I or II . Which has the bigger GLUR EC50 (cAMP formation in HEK293 cells expressing human Glucagon-R) number? Provide the label of your selected option as the answer.
II
(II: 0.22 nmol, I: 0.1 nmol)

All figures here come from patent US20110286981A1.
